- Measured On: KRAS G12S (Homo sapiens, UniProt P01116+P62937, G12S)
- Sequence (P01116 1-169 isoform P01116-2 G12S limits assumed): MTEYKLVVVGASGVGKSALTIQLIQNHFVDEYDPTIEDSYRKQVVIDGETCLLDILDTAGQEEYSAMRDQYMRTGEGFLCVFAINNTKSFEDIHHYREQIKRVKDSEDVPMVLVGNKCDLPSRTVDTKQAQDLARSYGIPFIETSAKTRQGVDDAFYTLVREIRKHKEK
- Sequence (P62937 whole entry): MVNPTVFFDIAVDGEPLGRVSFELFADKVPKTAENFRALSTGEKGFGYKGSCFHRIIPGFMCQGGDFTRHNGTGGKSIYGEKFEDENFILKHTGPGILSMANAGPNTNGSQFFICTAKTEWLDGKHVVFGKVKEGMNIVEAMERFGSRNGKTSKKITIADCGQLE
- Protocol Description: Disruption of BRAF RBD interaction with Ras (FRET / MOA assay, with Cyclophilin A)
- Assay type: biochemical
- Condition Context: read-out: KRAS G12S FRET data, IC50
pIC50: −log10 of the molar value.
Exercise: for every item that follows, state its recorded pIC50.

# return recorded pIC50 for input CO[C@@H](C)c1ncccc1-c1c2c3cc(ccc3n1C)-c1csc(n1)C[C@H](NC(=O)[C@H](C(C)C)N(C)C(C)=O)C(=O)N1CCC[C@H](N1)C(=O)OCC(C)(C)C2 (racemic)
< 5.00

Using the record for `CCn1c(-c2cccnc2COC)c2c3cc(ccc31)-c1cc(O)cc(c1)C[C@H](NC(=O)[C@H](C(C)C)N(C)C(=O)[C@H]1CCN(C(C)=O)C1)C(=O)N1CCC[C@H](N1)C(=O)OCC(C)(C)C2` , state its measured pIC50.
6.00 to 7.00

# return recorded pIC50 for input `CCn1c(-c2cccnc2[C@H](C)OC)c2c3cc(ccc31)-c1csc(n1)C[C@H](NC(=O)[C@H](C(C)C)N(C)C(=O)N1C[C@@H]3CN(C)CC[C@@H]31)C(=O)N1CCC[C@H](N1)C(=O)OCC(C)(C)C2`
5.00 to 6.00

Item `CCn1c(-c2cccnc2[C@H](C)OC)c2c3cc(ccc31)-c1csc(n1)C[C@H](NC(=O)[C@H](C(C)C)N(C)C(=O)N1CCOC3(CN(C)C3)C1)C(=O)N1CCC[C@H](N1)C(=O)OCC(C)(C)C2` : provide pIC50
6.00 to 7.00

Supply pIC50 value. Item: `C=CC(=O)N1CC[C@H](C(=O)N(C)[C@H](C(=O)N[C@H]2Cc3cc(O)cc(c3)-c3ccc4c(c3)c(c(-c3cncnc3)n4CC)CC(C)(C)COC(=O)[C@@H]3CCCN(N3)C2=O)C(C)C)C1`
5.00 to 6.00

Identify pIC50 associated with the molecule CCn1c(-c2cccnc2[C@H](C)OC)c2c3cc(ccc31)N1CCO[C@@](C)(CC(NC(=O)[C@H](C(C)C)N(C)C(=O)C3(F)CCN(C(=O)C#CC(C)(C)N(C)C)CC3)C(=O)N3CCC[C@H](N3)C(=O)OCC(C)(C)C2)C1 (some centres unmarked)
5.00 to 6.00

Note pIC50 for the molecule shown: `C=CC(=O)N1CC[C@H](C(=O)N(C)[C@H](C(=O)N[C@H]2Cc3cc(O)cc(c3)-c3ccc4c(c3)c(c(-c3ccccc3CN(C)C)n4CC)CC(C)(C)COC(=O)[C@@H]3CCCN(N3)C2=O)C(C)C)C1`
6.00 to 7.00

Specify pIC50 for `CCn1c(-c2cccnc2[C@H](C)OC)c2c3cc(ccc31)-c1cc(O)cc(c1)C[C@H](NC(=O)[C@H](C(C)C)N(C)C(=O)[C@H]1CCN(C(=O)[C@@]3(C)CCCN3)C1)C(=O)N1CCC[C@H](N1)C(=O)OCC(C)(C)C2` and stop.
7.00 to 8.00

Identify measured pIC50 associated with CCn1c(-c2cnccc2COC)c2c3cc(ccc31)-c1cc(O)cc(c1)C[C@H](NC(=O)[C@H](C(C)C)N(C)C(=O)C1C[C@@H]1C)C(=O)N1CCC[C@H](N1)C(=O)OCC(C)(C)C2 (some centres unmarked)
6.00 to 7.00

Provide one value: measured pIC50 of `CCn1c(-c2cccnc2[C@H](C)OC)c2c3cc(ccc31)-c1csc(n1)C[C@H](NC(=O)[C@H](C(C)C)N(C)C(=O)N(C)C1(COC)COC1)C(=O)N1CCC[C@H](N1)C(=O)OCC(C)(C)C2`
6.00 to 7.00

Look up and report measured pIC50 for this entry: CCn1c(-c2cccnc2[C@H](C)OC)c2c3cc(ccc31)-c1cccc(c1)C[C@H](NC(=O)[C@@H](CN1CC[C@]3(CCN(C(=O)C#C[C@H]4COCCN4C)C3)C1=O)C(C)C)C(=O)N1CCCC(N1)C(=O)OCC(C)(C)C2 (some centres unmarked)
5.00 to 6.00

Consider the molecule `CCn1c(-c2cccnc2[C@H](C)OC)c2c3cc(ccc31)-c1csc(n1)C[C@H](NC(=O)[C@H](C(C)C)N(C)C(=O)N1CC(n3nc(C)cc3C)C1)C(=O)N1CCC[C@H](N1)C(=O)OCC(C)(C)C2` . State its measured pIC50.
6.00 to 7.00

Tell me its pIC50 given `C=CC(=O)N1CC[C@H](C(=O)N(C)[C@H](C(=O)N[C@H]2Cc3cc(O)cc(c3)-c3ccc4c(c3)c(c(-c3cncc(CN(C)C)c3)n4CC)CC(C)(C)COC(=O)[C@@H]3CCCN(N3)C2=O)C(C)C)C1` as the entry.
5.00 to 6.00

Output pIC50 of `CCn1c(-c2cccnc2[C@H](C)OC)c2c3cc(ccc31)-c1cc(O)cc(c1)C[C@H](NC(=O)[C@H](C(C)C)N(C)C(=O)C1(N)CC1)C(=O)N1CCC[C@H](N1)C(=O)OCC(C)(C)C2`
6.00 to 7.00

Give the reported value of pIC50 for this record: CCn1c(-c2cccnc2[C@H](C)OC)c2c3cc(ccc31)-c1csc(n1)C[C@H](NC(=O)[C@H](C(C)C)N(C)C(=O)N1CCCOCC1)C(=O)N1CCC[C@H](N1)C(=O)OCC(C)(C)C2 (atropisomer, axis not shown)
7.00 to 8.00

Consider the molecule `CCn1c(-c2cccnc2[C@H](C)OC)c2c3cc(ccc31)-c1csc(n1)C[C@H](NC(=O)[C@H](C(C)C)N(C)C(=O)[C@H]1CCN(C(=O)CNC)C1)C(=O)N1CCC[C@H](N1)C(=O)OCC(C)(C)C2` . State its measured pIC50.
5.00 to 6.00

Please supply the value of reported pIC50 for the item `CCn1c(-c2cccnc2[C@H](C)OC)c2c3cc(ccc31)-c1csc(n1)C[C@H](NC(=O)[C@@H](OC(=O)N1CC(OC)C1)C(C)C)C(=O)N1CCC[C@H](N1)C(=O)OCC(C)(C)C2`
6.00 to 7.00
